Test system: colorectal cancer cells WiDr
Assay comment: Cell anti-proliferation experiment, MTT (Table 2)
Assay type: cell-based, human
Run parameters: Homo sapiens, WiDr, 72 h, incubate 3 days
Please assign false (0) whenever IC50 is at or above 20 nM, and true (1) whenever it is below.

1. COCCOC(=O)Nc1ccc2c(-c3nc(N[C@H]4CCCNC4)ncc3C(F)(F)F)c[nH]c2c1Br | true (1)
2. CC1(C)CC[C@H](Nc2ncc(C(F)(F)F)c(-c3c[nH]c4c(P(C)(C)=O)c(C#N)ccc34)n2)CN1 [Compound 101, reference compound] | true (1)
3. COC(=O)Nc1ccc2c(-c3nc(N[C@H]4CCCNC4)ncc3C(F)(F)F)c[nH]c2c1C1CC1 | false (0)
4. COC(=O)Nc1ccc2c(-c3nc(N[C@H]4CCCNC4)ncc3C(F)(F)F)c[nH]c2c1Cl | true (1)
5. COC(=O)Nc1ccc2c(-c3nc(N[C@H]4CCCNC4)ncc3C(F)(F)F)c[nH]c2c1Br | true (1)
6. COC(=O)Nc1ccc2c(-c3nc(N[C@H]4CCCNC4)ncc3C(F)(F)F)c[nH]c2c1C | false (0)
7. COC(=O)Nc1ccc2c(-c3nc(N[C@H]4CCCNC4)ncc3C(F)(F)F)c[nH]c2c1OC | true (1)
8. CCOC(=O)Nc1ccc2c(-c3nc(N[C@H]4CCCNC4)ncc3C(F)(F)F)c[nH]c2c1Br | false (0)
